Molecular target: Gamma-aminobutyric acid receptor subunit alpha-1 (Rattus norvegicus)
Sequence (P62813 whole entry): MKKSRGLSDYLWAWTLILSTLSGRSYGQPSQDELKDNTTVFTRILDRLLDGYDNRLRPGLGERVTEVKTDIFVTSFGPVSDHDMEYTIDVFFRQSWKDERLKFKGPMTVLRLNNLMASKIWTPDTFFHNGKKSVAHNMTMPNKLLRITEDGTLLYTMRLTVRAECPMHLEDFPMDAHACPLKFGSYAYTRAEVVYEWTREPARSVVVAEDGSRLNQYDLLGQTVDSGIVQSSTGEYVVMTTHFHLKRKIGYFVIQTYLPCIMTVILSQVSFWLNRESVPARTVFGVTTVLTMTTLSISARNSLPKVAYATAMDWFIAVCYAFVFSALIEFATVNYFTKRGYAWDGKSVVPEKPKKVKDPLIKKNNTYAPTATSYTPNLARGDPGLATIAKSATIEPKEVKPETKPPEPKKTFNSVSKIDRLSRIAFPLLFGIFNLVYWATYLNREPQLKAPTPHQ
Observable: Ki (nM)
Just the number in nM, nothing appended.

Query :: Please respond with reported Ki (system Gamma-aminobutyric acid receptor subunit alpha-1 (Rattus norvegicus)) for Cc1nnc2ccc(-c3cccc(C(F)(F)F)c3)nn12 .
Result :: 1310
